B1: COX4I1 (parent)
chain: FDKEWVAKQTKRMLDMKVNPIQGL

- Variants of: B1
- Test method notes: protein stability index of a GFP-peptide fusion (GPS, HEK-293T) (PSI 1-6); higher = more stable;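 note: lentivirally expressed fusions sorted by FACS into six bins by GFP to DsRed ratio, PSI derived from sequencing read proportions per bin multiplied by bin number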
- Run conditions: c terminus: a fixed tail appended
Quantity: protein stability index

These solved cases illustrate the format of a correct answer.
Find the recorded protein stability index belonging to V18G and report it.
2

Quick one: protein stability index for P20Q ?
1.54

Please give the measured protein stability index for this variant: Q22L
2.08

Quick check: protein stability index of Q22N ?
1.77

For D15V , what is its reported protein stability index?
1.33

Others:
What protein stability index value was documented for this variant, K3V ?
1.68

The reported measurements were obtained from the supplement of paper PMC10567573.
